IC50 values for the compounds below.
- system-name: Vps34 enzyme (Homo sapiens (Human))
- Sequence (Q8NEB9 whole entry): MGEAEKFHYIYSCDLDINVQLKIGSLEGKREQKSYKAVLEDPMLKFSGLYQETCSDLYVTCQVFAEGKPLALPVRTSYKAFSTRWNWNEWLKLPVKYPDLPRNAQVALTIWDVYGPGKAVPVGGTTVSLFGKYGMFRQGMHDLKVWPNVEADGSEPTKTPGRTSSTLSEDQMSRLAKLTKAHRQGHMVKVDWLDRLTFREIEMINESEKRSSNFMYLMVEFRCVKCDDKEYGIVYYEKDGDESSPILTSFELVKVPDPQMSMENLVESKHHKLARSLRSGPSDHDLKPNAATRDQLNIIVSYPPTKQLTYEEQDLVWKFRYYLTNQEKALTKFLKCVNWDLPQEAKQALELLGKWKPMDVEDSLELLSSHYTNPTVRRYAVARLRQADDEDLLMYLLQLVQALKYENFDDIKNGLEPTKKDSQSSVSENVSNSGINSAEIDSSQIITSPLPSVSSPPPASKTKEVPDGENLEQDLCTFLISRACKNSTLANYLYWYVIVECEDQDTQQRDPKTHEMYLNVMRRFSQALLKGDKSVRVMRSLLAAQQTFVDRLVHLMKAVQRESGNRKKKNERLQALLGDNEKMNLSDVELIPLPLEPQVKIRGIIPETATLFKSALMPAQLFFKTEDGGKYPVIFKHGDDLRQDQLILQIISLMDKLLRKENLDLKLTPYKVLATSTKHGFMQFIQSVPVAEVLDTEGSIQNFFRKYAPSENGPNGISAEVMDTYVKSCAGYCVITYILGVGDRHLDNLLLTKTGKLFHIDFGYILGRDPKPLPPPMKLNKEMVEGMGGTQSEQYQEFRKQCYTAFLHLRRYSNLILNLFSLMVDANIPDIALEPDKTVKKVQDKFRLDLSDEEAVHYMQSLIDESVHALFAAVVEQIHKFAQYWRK
- experiment-notes: Vps34 biochemical assay (Adapta kinase assay)
- applied-conditions: 20 μM ATP and 200 μM PI:PS in substrate mix, 1 h at room temperature, read-out: Median IC50 uM Adapta
All answers are understood in µM, so give the number only.

# example entries with known answers
C[C@@H]1COCCN1c1cc(N2CCCCC2C(F)(F)F)[nH]c(=O)c1 (single isomer, unassigned) [Example 25_2] | 0.08
C[C@@H]1COCCN1c1cc(N2CCN(C(=O)Cc3ccc(F)cc3)CC2C(F)(F)F)[nH]c(=O)c1 (stereo partly shown) | 0.006
C[C@@H]1COCCN1c1cc(N2CCN(C(=O)c3cncc(F)c3)CC2C(F)(F)F)[nH]c(=O)c1 (stereo partly shown) | 0.005

Pending compound:
Request: Indicate its recorded IC50; the compound in question is C[C@@H]1COCCN1c1cc(N2CCC[C@@H]2C(F)(F)F)[nH]c(=O)c1
Result: 0.009
